Where a name gives a salt, the structure may show the parent alone.
Here we list molecules with their recorded IC50 when tested on human FGFR1 (Homo sapiens).
Sequence (P11362 22-822): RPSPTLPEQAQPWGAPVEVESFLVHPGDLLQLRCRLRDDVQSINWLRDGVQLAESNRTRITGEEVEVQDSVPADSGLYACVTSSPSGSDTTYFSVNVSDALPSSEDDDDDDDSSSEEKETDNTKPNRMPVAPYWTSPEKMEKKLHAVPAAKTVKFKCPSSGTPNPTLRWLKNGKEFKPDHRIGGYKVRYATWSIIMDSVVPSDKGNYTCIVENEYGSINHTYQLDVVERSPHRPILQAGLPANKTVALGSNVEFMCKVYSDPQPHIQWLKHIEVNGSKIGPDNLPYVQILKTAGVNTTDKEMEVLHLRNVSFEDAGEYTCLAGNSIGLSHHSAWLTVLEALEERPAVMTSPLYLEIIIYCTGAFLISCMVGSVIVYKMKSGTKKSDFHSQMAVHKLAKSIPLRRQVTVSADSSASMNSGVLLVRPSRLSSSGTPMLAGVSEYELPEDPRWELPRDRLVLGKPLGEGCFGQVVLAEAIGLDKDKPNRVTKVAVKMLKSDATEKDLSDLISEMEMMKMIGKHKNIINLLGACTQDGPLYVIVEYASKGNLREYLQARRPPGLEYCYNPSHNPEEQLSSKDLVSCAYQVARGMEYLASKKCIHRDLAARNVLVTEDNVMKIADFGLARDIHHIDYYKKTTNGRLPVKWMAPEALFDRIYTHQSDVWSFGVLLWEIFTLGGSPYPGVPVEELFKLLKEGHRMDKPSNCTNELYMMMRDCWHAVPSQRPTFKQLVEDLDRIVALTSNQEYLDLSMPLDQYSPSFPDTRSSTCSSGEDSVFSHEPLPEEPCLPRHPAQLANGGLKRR

MOLECULE	IC50 [nM]
COc1cc(Cc2c[nH]c3ncc(-c4cnn(C5CCNCC5)c4)cc23)cc(OC)c1 [Trifluoroacetate salt of embodiment 11]	17.1
COc1cc(OC)c(F)c(Cc2c[nH]c3ncc(-c4cccc(C5(C#N)CCNCC5)c4)cc23)c1F [Trifluoroacetate salt of embodiment 59]	0.8
COc1cc(OC)c(F)c(Cc2c[nH]c3ncc(-c4cnn(CCO)c4)nc23)c1F [Trifluoroacetate salt of embodiment 8]	0.43
COc1cc(OC)c(F)c(Cc2c[nH]c3ncc(-c4cnn(CC(O)CNC(C)C)c4)cc23)c1F (stereo not drawn) [Hydrochloride of embodiment 71]	0.4
CCN1CCC(n2cc(-c3cnc4[nH]cc(Cc5c(F)ccc(OC)c5F)c4c3)c(C)n2)CC1 [Trifluoroacetate salt of embodiment 39]	29
CCN1CCC2(CC1)C(=O)Nc1cc(-c3cnc4[nH]cc(Cc5c(F)c(OC)cc(OC)c5F)c4c3)ccc12 [Trifluoroacetate salt of embodiment 55]	2.2
